Molecular target: δ opioid receptor (Rattus norvegicus)
Sequence (P33533 whole entry): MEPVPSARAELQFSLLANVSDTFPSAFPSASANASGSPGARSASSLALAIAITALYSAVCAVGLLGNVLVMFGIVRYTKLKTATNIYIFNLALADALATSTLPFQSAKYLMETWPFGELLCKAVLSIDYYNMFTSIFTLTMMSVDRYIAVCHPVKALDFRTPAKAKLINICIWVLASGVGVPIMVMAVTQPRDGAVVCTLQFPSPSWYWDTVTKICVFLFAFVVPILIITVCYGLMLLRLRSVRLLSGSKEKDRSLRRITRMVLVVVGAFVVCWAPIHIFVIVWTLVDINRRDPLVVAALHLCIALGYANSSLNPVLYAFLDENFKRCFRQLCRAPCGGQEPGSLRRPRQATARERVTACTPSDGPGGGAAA
Assay: Opiate Binding Assay, δ receptor (3[H]-DSLET displacement)
Structures can show the parent of a compound that is named as a salt.
I'd appreciate it if you marked entries label 1 when IC50 is lower than 0.01 µM and label 0 when it is not.

{"Compound": "Oc1ccc2c3c1O[C@H]1c4oc5ccccc5c4C[C@@]4(O)[C@@H](C2)N(Cc2ncc[nH]2)CC[C@]314 (relative stereo) [Example XV, hydrochloride]", "Assigned Label": "label 0"}
{"Compound": "CO[C@@]12Cc3c(oc4ccccc34)[C@@H]3Oc4c(O)ccc5c4[C@@]31CCN(C)[C@@H]2C5 (relative stereo) [Example IX, monohydrochloride]", "Assigned Label": "label 1"}
{"Compound": "CN1CC[C@]23c4c5ccc(O)c4O[C@H]2c2oc4ccccc4c2C[C@@]3(OCc2ccccc2)[C@H]1C5 (relative stereo) [Example X, monohydrochloride]", "Assigned Label": "label 1"}
{"Compound": "CCOC(=O)CN1CC[C@]23c4c5ccc(O)c4O[C@H]2c2oc4ccccc4c2C[C@@]3(O)[C@H]1C5 (relative stereo) [Example IV, hydrochloride]", "Assigned Label": "label 0"}
{"Compound": "O=C(O)CN1CC[C@]23c4c5ccc(O)c4O[C@H]2c2oc4ccccc4c2C[C@@]3(O)[C@H]1C5 (relative stereo) [Example VIII, hydrochloride]", "Assigned Label": "label 0"}
{"Compound": "Oc1ccc2c3c1O[C@H]1c4oc5ccccc5c4C[C@@]4(O)[C@@H](C2)NCC[C@]314 (relative stereo)", "Assigned Label": "label 1"}
{"Compound": "CN1CC[C@]23c4c5ccc(O)c4O[C@H]2c2[nH]c4ccc(C(=O)O)cc4c2C[C@@]3(O)[C@H]1C5 (relative stereo) [Example V, monohydrochloride]", "Assigned Label": "label 0"}
{"Compound": "CN1CC[C@]23c4c5ccc(O)c4O[C@H]2c2[nH]c4c(I)cccc4c2C[C@@]3(O)[C@H]1C5 (relative stereo) [Example XII, monohydrochloride]", "Assigned Label": "label 1"}
{"Compound": "Oc1ccc2c3c1O[C@H]1c4oc5ccccc5c4C[C@@]4(O)[C@@H](C2)N(CCc2ccccc2)CC[C@]314 (relative stereo) [Example VII, hydrochloride]", "Assigned Label": "label 0"}
{"Compound": "CC(C)=CCN1CC[C@]23c4c5ccc(O)c4O[C@H]2c2oc4ccccc4c2C[C@@]3(O)[C@H]1C5 (relative stereo) [Example III, monohydrochloride]", "Assigned Label": "label 0"}

====

Molecular target: UniProtKB P33535
Sequence (P33535 whole entry): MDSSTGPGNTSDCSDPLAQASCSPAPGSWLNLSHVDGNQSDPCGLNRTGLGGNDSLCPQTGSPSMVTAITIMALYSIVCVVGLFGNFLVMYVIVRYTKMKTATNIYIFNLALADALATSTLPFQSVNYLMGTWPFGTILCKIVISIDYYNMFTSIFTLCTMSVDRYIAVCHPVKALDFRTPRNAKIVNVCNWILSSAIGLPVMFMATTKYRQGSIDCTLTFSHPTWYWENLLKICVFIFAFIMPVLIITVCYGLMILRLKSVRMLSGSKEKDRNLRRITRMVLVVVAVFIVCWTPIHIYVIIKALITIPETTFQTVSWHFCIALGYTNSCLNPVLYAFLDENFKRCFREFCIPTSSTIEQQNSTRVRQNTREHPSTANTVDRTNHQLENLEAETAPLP
Assay: Opiate Binding Assay, μ receptor (3[H]-DAMGO displacement)
Counter-ions that a name gives are not always drawn.
The entries below are paired with their reported IC50.
Recorded Endpoint: IC50 (nM)

{"Compound": "CN1CC[C@]23c4c5ccc(O)c4O[C@H]2c2oc4ccccc4c2C[C@@]3(OCc2ccccc2)[C@H]1C5 (relative stereo) [Example X, monohydrochloride]", "Unit Of Measurement": "nM", "Measurement Qualifier": "=", "Reported": 356}
{"Compound": "O=C(O)CN1CC[C@]23c4c5ccc(O)c4O[C@H]2c2oc4ccccc4c2C[C@@]3(O)[C@H]1C5 (relative stereo) [Example VIII, hydrochloride]", "Unit Of Measurement": "nM", "Measurement Qualifier": "=", "Reported": 4000}
{"Compound": "CCOC(=O)CN1CC[C@]23c4c5ccc(O)c4O[C@H]2c2oc4ccccc4c2C[C@@]3(O)[C@H]1C5 (relative stereo) [Example IV, hydrochloride]", "Unit Of Measurement": "nM", "Measurement Qualifier": ">", "Reported": 10000}
{"Compound": "CO[C@@]12Cc3c(oc4ccccc34)[C@@H]3Oc4c(O)ccc5c4[C@@]31CCN(C)[C@@H]2C5 (relative stereo) [Example IX, monohydrochloride]", "Unit Of Measurement": "nM", "Measurement Qualifier": "=", "Reported": 430}
{"Compound": "CC(C)=CCN1CC[C@]23c4c5ccc(O)c4O[C@H]2c2oc4ccccc4c2C[C@@]3(O)[C@H]1C5 (relative stereo) [Example III, monohydrochloride]", "Unit Of Measurement": "nM", "Measurement Qualifier": "=", "Reported": 4670}
{"Compound": "CN1CC[C@]23c4c5ccc(O)c4O[C@H]2c2[nH]c4c(I)cccc4c2C[C@@]3(O)[C@H]1C5 (relative stereo) [Example XII, monohydrochloride]", "Unit Of Measurement": "nM", "Measurement Qualifier": "=", "Reported": 101}
{"Compound": "Oc1ccc2c3c1O[C@H]1c4oc5ccccc5c4C[C@@]4(O)[C@@H](C2)NCC[C@]314 (relative stereo) [Example II]", "Unit Of Measurement": "nM", "Measurement Qualifier": "=", "Reported": 291}
{"Compound": "CN1CC[C@]23c4c5ccc(O)c4O[C@H]2c2[nH]c4ccc(C(=O)O)cc4c2C[C@@]3(O)[C@H]1C5 (relative stereo) [Example V, monohydrochloride]", "Unit Of Measurement": "nM", "Measurement Qualifier": "=", "Reported": 810}
